Molecular target: human SGLT1 (Homo sapiens (Human), UniProt P13866)
Sequence (P13866 whole entry): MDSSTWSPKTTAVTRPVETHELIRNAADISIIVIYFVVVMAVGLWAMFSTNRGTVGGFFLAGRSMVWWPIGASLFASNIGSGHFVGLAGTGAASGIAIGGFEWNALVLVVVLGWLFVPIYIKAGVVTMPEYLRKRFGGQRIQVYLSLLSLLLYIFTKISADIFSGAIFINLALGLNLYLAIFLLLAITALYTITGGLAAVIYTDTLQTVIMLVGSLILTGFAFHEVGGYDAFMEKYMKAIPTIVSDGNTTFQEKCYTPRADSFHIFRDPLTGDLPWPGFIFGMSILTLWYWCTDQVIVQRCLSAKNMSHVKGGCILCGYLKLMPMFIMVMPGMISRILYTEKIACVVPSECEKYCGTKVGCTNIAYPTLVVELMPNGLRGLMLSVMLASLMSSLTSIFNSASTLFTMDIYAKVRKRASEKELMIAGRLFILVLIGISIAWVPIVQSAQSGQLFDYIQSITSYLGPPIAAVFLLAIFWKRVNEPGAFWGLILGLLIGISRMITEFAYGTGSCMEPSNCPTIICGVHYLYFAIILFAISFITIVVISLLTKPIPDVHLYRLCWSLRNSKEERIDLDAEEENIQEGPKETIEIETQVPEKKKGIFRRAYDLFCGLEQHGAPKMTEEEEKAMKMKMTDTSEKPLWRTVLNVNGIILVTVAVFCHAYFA
Test: Inhibitory effect on human SGLT1 activity (14C-AMG uptake in CHO cells expressing hSGLT1)
Details: 14C-AMG transport, CHO cells expressing hSGLT1, 2 hours
QUANTITY NAME: IC50 (nM)
One number for each entry, in nM.

COc1ccc(Cc2cc([C@@H]3O[C@H](CO)[C@@H](O)[C@H](O)[C@H]3O)c(C)c3c2CCC3)cc1	9.1
CCc1ccc(Cc2cc([C@@H]3O[C@H](CO)[C@@H](O)[C@H](O)[C@H]3O)c(CC(C)C)c3c2CCC3)cc1	1610
CCCc1c([C@@H]2O[C@H](CO)[C@@H](O)[C@H](O)[C@H]2O)cc(Cc2ccc(OC)cc2)c2c1CCC2	236
CCc1c([C@@H]2O[C@H](CO)[C@@H](O)[C@H](O)[C@H]2O)cc(Cc2ccc(C)cc2)c2c1CCC2	41.8
Cc1c([C@@H]2O[C@H](CO)[C@@H](O)[C@H](O)[C@H]2O)cc(Cc2ccc(Cl)cc2)c2c1CCC2	14.3

Now consider a different compound.
Exam item: Consider the compound Cc1c(C2O[C@H](CO)C(O)[C@H](O)C2O)cc(Cc2ccc(C(C)C)cc2)c2c1CCC2 (stereo in doubt) and give its measured IC50.
Marked response: 296
